test system: HT29 colon; assay: NCI-60 one-dose screen, 48 h; details: 10 µM unless noted
About 83,000 compounds went through this panel and 20% of them were active in at least one assay; those are over-represented in the sample as a whole. Active and inactive are the calls of the source. How the source made its calls: active means growth percent below 10; inactive means the rest.
Reply using exactly one outcome from active, inactive

Solved cases (5 shown):
CCc1c(C)c2cc3c(c(C)c2oc1=O)OCC(=O)N3 ... inactive
Cc1cc(SCc2ccc(Cl)cc2Cl)nc(SCc2ccc(Cl)cc2Cl)n1 ... inactive
CC(Cl)(CCl)CS(=O)(=O)c1ccc(Cl)cc1 (stereo not given) ... inactive
CCOc1ccc(Cc2nccc3cc(OCC)c(OCC)cc23)cc1OCC ... inactive
O=C(N/N=C1\SCC(=O)N1c1ccccc1)c1cc(-c2cc3ccccc3o2)nn1-c1ccccc1 ... inactive

[in] Query: recorded result category for CC1(C)N=C(N)N=C(N)N1c1cccc(CCCCc2ccccc2)c1 in this test
[out] active

[in] Query: recorded result category for COc1ccccc1S(=O)(=O)Nc1ccc2c3c(cc(-c4ccoc4)nc13)C(=O)N2C in this test
[out] inactive

###

tested on: HT29 colon; assay: NCI-60 one-dose screen, 48 h; settings: 10 µM unless noted
This is part of a sample that, as a whole, favours compounds with a hit. Of some 83,000 tested, about 20% had one in any assay. Activity calls are given as the source filed them. The calls were made as follows: active = growth percent below 10; inactive = the rest.
Reply using exactly one outcome from active, inactive

COc1ccc(C(=O)Cn2cnc3c(Nc4cc(C(=O)Nc5ccc(N6CCN(CCO)CC6)cc5)ccc4C)ncnc32)cc1 ... inactive
CC(C)(CCN=C(N)Nc1ccccn1)c1ccc(C(F)(F)F)cc1 ... active
COc1cc(-c2nc3ccccc3s2)ccc1OCc1nc2n(n1)S(=O)(=O)c1ccccc1N2c1ccccc1 ... inactive
O=C(O)c1ccc(-n2cc(/C=N/Nc3ccc(Cl)cc3)c(-c3ccc(F)c(F)c3)n2)cc1 ... inactive
CC(NCCC(c1ccccc1)c1ccccc1)c1ccccc1 (centres undefined) ... inactive

[in] Query: recorded result category for O=C(Nc1ccc(-n2ccc3c(NC(=O)c4ccccc4)ncnc32)cc1)Nc1ccc(Cl)c(C(F)(F)F)c1 in this test
[out] active

[in] Query: recorded result category for O=c1c2ccccc2sc2c(NCCN3CCOCC3)nc3ccccc3c12 in this test
[out] active

[in] Query: recorded result category for Cc1c(C(C)(C)C)cc(C(C)(C)C)c2c1CN(C)CO2 in this test
[out] inactive

[in] Query: recorded result category for COc1ccc(-c2[nH]c3ccccc3c2/C=C(\C#N)S(=O)(=O)c2ccccc2)cc1 in this test
[out] inactive

###

test system: SNB-19 CNS; assay: NCI-60 one-dose screen, 48 h (100 = growth as untreated, 0 = no growth, -100 = all killed); conditions: 10 µM unless noted
This is part of a sample that, as a whole, favours compounds with a hit. Of some 83,000 tested, about 20% had one in any assay.
So basically: growth at 60% or higher? That is Met. Lower than 60%? That is Not met.

Solved cases (3 shown):
CCCCOc1c(N)cccc1C(=O)OCCN(CC)CC ... Met
Nc1nc(Nc2ccc(OCc3cccc(F)c3)cc2)c2c(n1)[nH]c1ccc(O)cc12 ... Not met
Nc1ncnc2c1c(-c1ccc(Oc3ccccc3)cc1)nn2C[C@H]1SSC[C@H]1O ... Not met

[in] Identify whether the reported growth of the following molecule is 60% or greater: COc1cccc(-c2nc3sccn3c2-c2ccnc(NCCNC(=O)c3ccccc3)n2)c1
[out] Met

[in] Identify whether the reported growth of the following molecule is 60% or greater: COc1cc(Cn2cc3c(c2)-c2onc(CO)c2CC3)cc(OC)c1OC
[out] Met

[in] Identify whether the reported growth of the following molecule is 60% or greater: CC(=O)Nc1ccc([I+]c2ccc([N+](=O)[O-])cc2)cc1
[out] Met

[in] Identify whether the reported growth of the following molecule is 60% or greater: COc1ccc(/C=C/C(=O)c2ccc(Oc3ncnc4ccccc34)cc2)cc1OC
[out] Met

[in] Identify whether the reported growth of the following molecule is 60% or greater: CO[C@H]1/C=C/C=C/C=C/C[C@H](OC(=O)[C@@H](C)NC(=O)C2CCCCC2)[C@H](C)[C@@H](O)/C(C)=C\CCC2=CC(=O)C=C(NC(=O)C1)C2=O
[out] Not met

[in] Identify whether the reported growth of the following molecule is 60% or greater: N#Cc1c(N)nc2c(c1N)C(c1ccc(Cl)cc1)C1=C(CCCC1=O)N2c1sc2c(c1C#N)CCCC2 (stereo unspecified)
[out] Met

[in] Identify whether the reported growth of the following molecule is 60% or greater: O=c1cc(Cl)[nH]c(=O)[nH]1
[out] Met

[in] Identify whether the reported growth of the following molecule is 60% or greater: O=c1c2ccccc2[nH]n1Cc1ccc2c(c1)OCO2
[out] Met

[in] Identify whether the reported growth of the following molecule is 60% or greater: COc1ccc(C2=NN(C(=O)COc3ccc(Cl)cc3)C(O)(c3cc(F)c(Cl)cc3Cl)C2)cc1 (stereo unspecified)
[out] Met

[in] Identify whether the reported growth of the following molecule is 60% or greater: O=c1c(-c2ccc3c(c2)OCO3)coc2c(CO)c(O)ccc12
[out] Not met

[in] Identify whether the reported growth of the following molecule is 60% or greater: COc1cc(/C=C/C(=O)c2c(C)[n+]([O-])c3ccccc3[n+]2[O-])ccc1O
[out] Met

[in] Identify whether the reported growth of the following molecule is 60% or greater: O=C1OC(c2ccc(-c3ccccc3)cc2)=C/C1=C/C=C/c1ccccc1
[out] Met

[in] Identify whether the reported growth of the following molecule is 60% or greater: O=C1CCC(c2c(O)cc(O)c3c(=O)c(O)c(-c4ccc(O)c(O)c4)oc23)N1 (stereo unspecified)
[out] Met

[in] Identify whether the reported growth of the following molecule is 60% or greater: CCN(CC)c1ccc(C2CC(c3cc(OC)c(OC)c(OC)c3)=NN2)cc1 (stereo unspecified)
[out] Not met

[in] Identify whether the reported growth of the following molecule is 60% or greater: O=C(NCCNc1nccc(-c2c(-c3cccc(O)c3)nc3sccn23)n1)Nc1cc(C(F)(F)F)cc(C(F)(F)F)c1
[out] Met

###

tested on: A549/ATCC NSCLC; assay: NCI-60 one-dose screen, 48 h (100 = growth as untreated, 0 = no growth, -100 = all killed); conditions: 10 µM unless noted
The panel holds about 83,000 compounds, 20% with a hit somewhere; the sample as a whole holds those more often.
recorded endpoint: growth (%)
// return numeric value only (unit: %, not printed)

// below: answered compounds
COc1ccc(/C=C/C(=O)c2ccc(-n3cc(CN4CCN(c5cc6c(cc5F)c(=O)c(C(=O)O)cn6C5CC5)CC4)nn3)cc2)cc1OC ... 15.7
CCOC(=O)CSc1nnc(-c2cc3c([nH]c4ccccc43)c(-c3cccc(O)c3)n2)n1-c1ccc(C)cc1 ... 98.5

[in] Item under review: NS(=O)(=O)c1ccc(Nc2nc(O)c(/C=C3\C=Nc4ccccc43)s2)cc1 . Reported growth?
[out] 90.4

[in] Item under review: CCCCCCCCN(CCCCCCCC)CC(O)c1cc(-c2ccccc2)nc2ccc(OC)cc12 (centres undefined) . Reported growth?
[out] 78.6

[in] Item under review: COc1ccc(Cn2cc(COc3ccc4c5ccnc(C)c5n(CCCc5ccccc5)c4c3)nn2)cc1 . Reported growth?
[out] 75.3

[in] Item under review: O=c1nc(N2CCOCC2)oc2c(-c3cccc4ccccc34)cccc12 . Reported growth?
[out] 85.6

###

tested on: A498 renal; experiment: NCI-60 one-dose screen, 48 h (100 = growth as untreated, 0 = no growth, -100 = all killed); conditions: 10 µM unless noted
Compounds without any hit were thinned out: in the full panel of roughly 83,000, 20% have a hit.
# growth per record follows
// return numeric value only (unit: %, not printed)

// below: answered molecules
C=C1C(=O)O[C@H]2[C@H]1CC/C(COC(=O)c1ccc(C#N)cc1)=C\CC[C@@]1(C)O[C@@H]21 ... 99.7
Nc1ncnc2c1ncn2C1OC(COC(c2ccccc2)(c2ccccc2)c2ccccc2)C(O)C1O (centres undefined) ... 103
O=C(C[n+]1ccccc1Cl)c1ccc2c(c1)CCCC2 ... 91.3

[in] Item under review: O=S(=O)(Nc1cccc2cc(OS(=O)(=O)c3ccccc3)ccc12)c1ccccc1 . Reported growth?
[out] 48.6

[in] Item under review: Nc1ncc(-c2ccc3ncnc(Nc4cncc(Cl)c4)c3c2)cn1 . Reported growth?
[out] 0.263

[in] Item under review: O=C(NCCNc1nccc(-c2c(-c3cccc(O)c3)nc3sccn23)n1)c1cccc(C(F)(F)F)c1 . Reported growth?
[out] 84.5

###

# growth per record follows
system: PC-3 prostate; experiment: NCI-60 one-dose screen, 48 h (100 = growth as untreated, 0 = no growth, -100 = all killed); conditions: 10 µM unless noted
This is part of a sample that, as a whole, favours compounds with a hit. Of some 83,000 tested, about 20% had one in any assay.
// return numeric value only (unit: %, not printed)

// below: answered compounds
COc1ccc2c(-c3ccc(F)cc3)c(C#N)c(=NC(C)=O)oc2c1 ... 30.6
CCCCn1c(-c2cccc(OC)c2)nc2cc(OC)c(OC)cc2c1=O ... 108
CC(=O)c1ccc2c(c1)C1C=CCC1[C@H](c1cc3c(cc1Br)OCO3)N2 (some centres undefined) ... 20.9
NS(=O)(=O)c1ccc(Nc2nc(O)c(/C=C3\C=Nc4ccccc43)s2)cc1 ... 92.1
CS(=O)(=O)Nc1cccc(-c2ccc3ncnc(Nc4ccc(F)c(Cl)c4)c3c2)c1 ... 12.3

[in] Item under review: Cc1cc(N2CCOCC2)nc(N(CCNc2ccnc3cc(Cl)ccc23)Cc2ccco2)n1 . Reported growth?
[out] 46.7

[in] Item under review: COc1cc2c(cc1OC)-c1c(oc3c4c(ccc3c1=O)OC(C)(C)C=C4)CO2 . Reported growth?
[out] 75.1

[in] Item under review: COc1cc(C(=O)C[n+]2ccccc2)ccc1OC(C)=O . Reported growth?
[out] 89.9
